Every entry's value here was drawn from ChEMBL document CHEMBL1201862.

Record form. Attribute: GI50. Fill in for each entry.
- System: DMS-114
- Method Description: NCI tumour cell line growth inhibition, 48 h
Calls of active or inactive are those of the source. Cut-off read from the data, not from the text of the source: active = GI50 up to about 1.1 µM and inactive = higher.

Here is how some compounds turned out for GI50.
# Compound, GI50
measured = [
    ("COc1ccc(/C=C(\\Cl)c2ccc(OC)cc2)cc1", "> 100 µM (inactive)"),
    ("NS(=O)(=O)c1ccc(NC(=O)COC(=O)c2cccc3c(=O)c4ccccc4[nH]c23)cc1", "18.9 µM (inactive)"),
    ("CC(C)CN(CC(C)C)C(=O)C1CCCC[C@@H]1C(=O)O (some centres undefined)", "> 100 µM (inactive)"),
    ("NC(=S)N/N=C(/CC(=O)c1ccc([N+](=O)[O-])cc1)C(=O)Nc1ncc([N+](=O)[O-])s1", "68.1 µM (inactive)"),
    ("CC1=CC2c3cccc4[nH]cc(c34)CC2N(C)C1 (centres undefined)", "51.2 µM (inactive)"),
]

Below is a list of compounds. For each, state its recorded GI50.
1. Cn1c2c(c3ccccc31)C1C(=O)N(c3ccccc3)C(=O)C1CC2 (centres undefined)
2. CCN(CC)CCOC(=O)c1ccc(N)cc1.CCOC(=O)Nc1ccc(S(=O)(=O)OC)cc1.CCOC(=O)Nc1ccc(S(=O)(=O)OC)cc1.Nc1ccc(C(=O)O)c(O)c1
3. Cc1cn(C2CC3C(COCN3O)O2)c(=O)[nH]c1=O (centres undefined)
4. CC1=CC(=O)CCC2(C)C1CC[C@@H]2OC=O (some centres undefined)
5. O=C1N2Cc3c4ccc5c3CN3C(=O)N6Cc7c(ccc(c7CN1C6(c1ccccc1)C23c1ccccc1)OCCOCCOc1cc(Br)c(Br)cc1OCCOCCO4)OCCOCCOc1cc(Br)c(Br)cc1OCCOCCO5 (centres undefined)

1: > 303 µM (inactive); 2: > 100 µM (inactive); 3: > 100 µM (inactive); 4: > 100 µM (inactive); 5: 41.2 µM (inactive)

###

- Test system: SW-620
- Method Description: NCI tumour cell line growth inhibition, 48 h
Active and inactive are the calls of the source. No stated cut-off is given here; in the data, active = GI50 up to about 1.1 µM and inactive = higher.
Record form. Attribute: GI50. Fill in for each entry.

Here is how some molecules turned out for GI50.
# Molecule, GI50
measured = [
    ("[O-][N+](CCO)(CCO)c1ncnc2[nH]cnc12", "> 100 µM (inactive)"),
    ("O=c1[nH]nc(-c2ccccc2)n1/N=C/c1cccc([N+](=O)[O-])c1", "> 100 µM (inactive)"),
    ("CC1CCc2c(sc3ncnc(N/N=C/c4ccc(Cl)cc4)c23)C1 (stereo not given)", "35.6 µM (inactive)"),
    ("CC1=C(C(=O)Nc2cc(F)c(F)cc2F)C(c2ccc(N(C)C)cc2)C(C(=O)Nc2cc(F)c(F)cc2F)=C(C)N1", "28.8 µM (inactive)"),
]

Next up:
Request the reported GI50 associated with O=C(CN1CCNCCN(CC(=O)N2CCCCC2)CCNCC1)N1CCCCC1
58.2 µM (inactive)

###

Record form. Attribute: GI50. Fill in for each entry.
- System: HT-29
- Method Description: NCI tumour cell line growth inhibition, 48 h
Active and inactive are the calls of the source. Cut-off read from the data, not from the text of the source: active = GI50 up to about 1.1 µM and inactive = higher.

# Molecule, Val
measured = [
    ("COc1ccc2c(c1)c(=O)c1c(NCCCN(C)C)ccc3ncn2c31", "1.13 µM (inactive)"),
    ("Cn1c2ccc3cc2c(=S)c2cc(ccc21)OCCOCCOCCOCCOCCOCCO3", "> 10 µM (inactive)"),
    ("Nc1ncc2c(n1)-c1ccccc1OC2", "> 100 µM (inactive)"),
    ("Cc1[nH]c(-c2ccccc2)c(O)c1C(=O)OC12CC3CC(CC(C3)C1)C2", "3.99 µM (inactive)"),
    ("CCOC(=O)/C(C#N)=N\\Nc1ccc(-n2c(C)nc3ccccc3c2=O)cc1", "> 100 µM (inactive)"),
    ("CC(C)NC(=O)OCc1c(COC(=O)NC(C)C)c(-c2cc[n+](COC(=O)C3CCCCC3)cc2)n2c1CCC2", "> 100 µM (inactive)"),
    ("C=C1CC2CC(=O)C(O)C(C1)C2 (centres undefined)", "> 100 µM (inactive)"),
    ("COc1cc(-c2c3c(cc4c2OCO4)[C@@H](Nc2ccc(-c4ccc(-c5ccc(N[C@@H]6c7cc8c(cc7C(c7cc(OC)c(O)c(OC)c7)[C@H]7C(=O)OC[C@H]67)OCO8)cc5)cc4)cc2)[C@H]2COC(=O)[C@@H]2C3)cc(OC)c1O (some centres undefined)", "2.31 µM (inactive)"),
]

Next up:
Entry CCOC(=O)CCC(NC(=O)c1ccc(Oc2nc3ccccc3nc2C(=O)OCC)cc1)C(=O)OCC (centres undefined) , system HT-29: what GI50 was measured?
> 100 µM (inactive)

###

Record form. Attribute: GI50. Fill in for each entry.
- Tested on: SK-MEL-28
- Method Description: NCI tumour cell line growth inhibition, 48 h
The source made the active and inactive calls. Cut-off read from the data, not from the text of the source: active = GI50 up to about 1.1 µM and inactive = higher. Non-standard residues stand in square brackets, D forms with d. Residues, ends and D or L forms follow the SMILES beside them. ξ: configuration not given here. *: point of attachment. ξHyp = O=C(O)C1CC(O)CN1; Cbz = O=C(OCc1ccccc1)*

# Molecule, Measurement Target, Val
rows = [
    ("C[S+](C)CC(=O)c1ccc2c(c1)Sc1ccccc1O2", "SK-MEL-28", "7.89 µM (inactive)"),
    ("O=C(O)CCSC(=S)Nc1cccc(F)c1", "SK-MEL-28", "28 µM (inactive)"),
    ("COc1ccc(C2NCCc3c2[nH]c2ccccc32)cc1 (stereo not drawn)", "SK-MEL-28", "5.22 µM (inactive)"),
    ("CC(C)C1COC(C(C)(C)C2=N[C@@H](C(C)C)CO2)=N1 (stereo partly drawn)", "SK-MEL-28", "> 100 µM (inactive)"),
    ("COc1ccc(N[S+]([O-])c2ccccc2OC)cc1 (stereo not drawn)", "SK-MEL-28", "54.8 µM (inactive)"),
    ("N#CCCC1(CCC#N)CCCCCCC(CCC#N)(CCC#N)C(O)C1O (stereo not drawn)", "SK-MEL-28", "> 100 µM (inactive)"),
]

Below is a list of molecules. For each, state its recorded GI50.
1. COc1ccc(/C=N/Nc2nc3ccccc3c(=O)n2-c2ccccc2)c(OCc2ccccc2)c1
2. C=CCOc1ccccc1/N=N/C(C#N)=N\Nc1ccccc1OCC=C
3. O=C(O)CCC(NC(=O)c1ccc(OCc2nc3cc(C(F)(F)F)ccc3nc2-c2ccccc2)cc1)C(=O)O (stereo not drawn)
4. Cc1ccc(S(=O)(=O)n2c3c(c4ccccc42)CCN2CCC(Br)C[C@@H]32)cc1 (stereo partly drawn)

["> 100 µM (inactive)", "> 100 µM (inactive)", "> 100 µM (inactive)", "11.9 µM (inactive)"]

Below is a list of molecules. For each, state its recorded GI50.
1. C[C@]12CC[C@@H]3c4ccc(O)cc4CC[C@H]3[C@@H]1C/C(=C\c1ccncc1)[C@@H]2O
2. NC(=O)CNC(=O)C1CC(O)CN1C(=O)OCc1ccccc1 (stereo not drawn) (Cbz-[ξHyp]-Gly-NH2)

1: 22.3 µM (inactive); 2: > 100 µM (inactive)

Below is a list of molecules. For each, state its recorded GI50.
1. CCSc1cc(=O)n(C)c(=O)n1C
2. CC(/C=N/N=C(N)N)=N\N=C(N)N
3. C=C1CC[C@@H](C)[C@](C)(CCc2ccoc2)C/C=C\C=C/1C(=O)O
4. CC(=O)Nc1oc(C)nc1C#N
5. CC(C)n1c2c(c3ccccc3c1=O)C(=O)c1ccccc1-2
6. Cc1cccc2cc3ccc4ccccc4c3cc12
7. CC(=O)c1ccc(Nc2c3c(nc4ccccc24)CCCC3)cc1
8. C/C(CC(O)(C(F)(F)Cl)C(F)(F)Cl)=N\Nc1ccccc1

1: > 100 µM (inactive); 2: 64.6 µM (inactive); 3: 21.9 µM (inactive); 4: > 100 µM (inactive); 5: > 100 µM (inactive); 6: > 100 µM (inactive); 7: 50.7 µM (inactive); 8: 47.2 µM (inactive)

###

- System: SNB-75
- Method Description: NCI tumour cell line growth inhibition, 48 h
Calls of active or inactive are those of the source. Rule as the data show it: active = GI50 up to about 1.1 µM and inactive = higher.
Thanks in advance; please answer with one of these: active, inactive

For orientation, consider the following solved cases.
# Compound, Classification
records = [
    ("C1CCN(c2nsc(N3CCCCC3)n2)CC1", "inactive"),
    ("CC(=O)OC1C(O)C(C)OC(OC2C(OC(=O)C3CCC4C(C3)OC3(CC(OC(=O)/C=C/c5ccccc5)C(C)CO3)C43CO3)OC(C)C(O)C2OC(C)=O)C1O (stereo not given)", "active"),
    ("[O-][S+](Cc1cnc2ccccc2c1)c1nc2ccccc2nc1-c1cccs1 (stereo not given)", "inactive"),
]

Tell me the recorded outcome of this test for CCOC(=O)C(O)(NC(=O)c1ccc(F)cc1)C(F)(F)F (stereo not given) .
inactive

Tell me the recorded outcome of this test for C=CCn1cnc2c(O)nc(Nc3ccccc3)nc21 .
inactive
